Reference source for all entries: ChEMBL document CHEMBL5233249

Target: Prostaglandin G/H synthase 2 (Homo sapiens, UniProt P35354)
Sequence (P35354 whole entry): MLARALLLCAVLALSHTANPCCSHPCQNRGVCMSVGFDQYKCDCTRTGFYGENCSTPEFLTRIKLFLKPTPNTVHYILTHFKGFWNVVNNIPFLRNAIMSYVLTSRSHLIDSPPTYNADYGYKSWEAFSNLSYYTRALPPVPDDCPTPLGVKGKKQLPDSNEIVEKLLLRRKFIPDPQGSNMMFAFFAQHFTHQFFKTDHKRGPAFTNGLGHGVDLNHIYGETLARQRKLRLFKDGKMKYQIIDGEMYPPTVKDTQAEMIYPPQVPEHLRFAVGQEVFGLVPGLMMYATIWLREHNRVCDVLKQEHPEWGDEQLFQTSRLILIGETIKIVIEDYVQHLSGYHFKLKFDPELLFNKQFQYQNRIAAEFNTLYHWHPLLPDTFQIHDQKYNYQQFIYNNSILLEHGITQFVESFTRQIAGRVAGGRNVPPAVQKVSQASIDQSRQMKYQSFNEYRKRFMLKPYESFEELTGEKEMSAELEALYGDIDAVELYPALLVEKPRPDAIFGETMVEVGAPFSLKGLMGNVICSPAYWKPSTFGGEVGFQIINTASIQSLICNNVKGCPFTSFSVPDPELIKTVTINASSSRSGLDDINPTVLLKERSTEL
Assay: Inhibition of COX-2 (unknown origin) at 10 uM
endpoint: IC50 (nM)
Entry rule: numbers only, all in nM.

In: Indicate its recorded IC50; the molecule in question is COc1ccc(/C=C2/SC(=S)C(Nc3nc4c(cnn4-c4ccccc4)c(=O)n3-c3ccccc3)C2=O)cc1OC (stereo unspecified)
Out: 780
